Hello, the source for this data is patent US10155751B2, in case you need it.

# System: Recombinant human Aurora B (amino acids 1-344) (Homo sapiens (Human))
# Experimental Details: Aurora B kinase test (ADP Glo)
# Format: biochemical
Reported selectivity ratio IC50(AURB)/IC50(SYK) by item:
Measured Metric: selectivity ratio IC50(AURB)/IC50(SYK)

compound="C[C@@H](Oc1cc(-c2cnn(CCC(F)(F)F)c2)cc2nn(C)c(F)c12)[C@H]1CNC(=O)C1 [Example 12]" experimental_result=10207
compound="CC(C)n1cc(-c2cc(O[C@H](C)[C@H]3CNC(=O)C3)c3c(F)n(C)nc3c2)cn1 [Example 2]" experimental_result=23955
compound="Cc1c2c(O[C@H](C)[C@H]3CNC(=O)C3)cc(-c3cnn(C4CC(C)(C)OC4(C)C)c3)cc2nn1C (stereo partly shown) [Example 16]" experimental_result=14323
compound="Cc1c2c(O[C@H](C)[C@H]3CNC(=O)C3)cc(-c3cnn(C(C)(C)C#N)c3)cc2nn1C [Example 17]" experimental_result=17241
compound="Cc1c2c(O[C@H](C)[C@H]3CNC(=O)C3)cc(-c3cnn(C4CCC4)c3)cc2nn1C [Example 21]" experimental_result=14442
compound="Cc1c2c(O[C@H](C)[C@H]3CNC(=O)C3)cc(-c3cnn([C@H]4CO[C@@H]5CCCO[C@@H]54)c3)cc2nn1C [Example 10]" experimental_result=10312
compound="C[C@@H](Oc1cc(-c2cnn(C(C)(C)C)c2)cc2ncn(C)c12)[C@H]1CNC(=O)C1 [example 3B.22 on page 219 of WO15017610, reference compound]" experimental_result=964

###

# System: Recombinant human Aurora B (amino acids 1-344) (Homo sapiens (Human), UniProt Q96GD4)
# Sequence (Q96GD4 whole entry, the tested form may be a part): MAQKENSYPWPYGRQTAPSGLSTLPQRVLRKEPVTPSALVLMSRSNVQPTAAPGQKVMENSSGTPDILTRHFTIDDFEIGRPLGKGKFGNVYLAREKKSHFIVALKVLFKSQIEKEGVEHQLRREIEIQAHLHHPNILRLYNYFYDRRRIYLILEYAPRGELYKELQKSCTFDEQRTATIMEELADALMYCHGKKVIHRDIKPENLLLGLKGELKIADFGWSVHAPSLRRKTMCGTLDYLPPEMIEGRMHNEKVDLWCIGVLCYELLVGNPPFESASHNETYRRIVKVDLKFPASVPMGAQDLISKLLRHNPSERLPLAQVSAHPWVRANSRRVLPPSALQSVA
# Experimental Details: Aurora B kinase test (ADP Glo)
# Type: biochemical
# Study Conditions: read-out: AURB inhibition IC50-value (chapter 5.3)
Reported IC50 by item:
Measured Metric: IC50 (µM)

compound=Cc1c2c(O[C@H](C)[C@H]3CNC(=O)C3)nc(-c3c[nH]nc3C(C)(C)C)cc2nn1C experimental_result=65.2
compound=Cc1c2c(O[C@H](C)[C@H]3CNC(=O)C3)cc(-c3cnn([C@@H]4CCOC(C)(C)C4)c3)cc2nn1C experimental_result=23.3
compound="Cc1c2c(O[C@H](C)[C@H]3CNC(=O)C3)cc(-c3cnn(C4CC(C)(C)OC4(C)C)c3)cc2nn1C (some centres unmarked)" experimental_result=44.4
compound=Cc1c2c(O[C@H](C)[C@H]3CNC(=O)C3)cc(-c3cnn(CC(C)C)c3)cc2nn1C experimental_result=23.8
compound=Cc1c2c(O[C@H](C)[C@H]3CNC(=O)O3)nc(-c3cnn(C(C)(C)C)c3)cc2nn1C experimental_result=31.5
compound="C[C@@H](Oc1cc(-c2cnn(C3CCC(F)(F)C3)c2)cc2nn(C)c(F)c12)[C@H]1CNC(=O)C1 (some centres unmarked)" experimental_result=26.2
compound=C[C@@H](Oc1cc(-c2cnn(C3CCC3)c2)cc2nn(C)c(F)c12)[C@H]1CNC(=O)C1 experimental_result=34.8
compound="C[C@@H](Oc1nc(-c2cnn(C(C)(C)C)c2)cc2ncn(C)c12)[C@H]1CNC(=O)C1 [example 3A.02, on page 196 of WO15017610, reference compound]" experimental_result=1.69
compound=Cc1c2c(O[C@H](C)[C@H]3CNC(=O)C3)cc(-c3cnn(C(C)(C)C)c3)cc2nn1C experimental_result=36
compound=Cc1c2c(O[C@H](C)[C@H]3CNC(=O)C3)cc(-c3cnn(C(C)C)c3)cc2nn1C experimental_result=20.2
compound=Cc1c2c(O[C@H](C)[C@H]3CNC(=O)C3)cc(-c3cnn(C(C)(C)C#N)c3)cc2nn1C experimental_result=50
compound=C[C@@H](Oc1cc(-c2cnn(CC3CC3)c2)cc2nn(C)c(F)c12)[C@H]1CNC(=O)C1 experimental_result=34.1
compound=Cc1c2c(O[C@H](C)[C@H]3CNC(=O)C3)cc(-c3cnn(C4CCC4)c3)cc2nn1C experimental_result=17.3
compound="Cc1cnn2cc(-c3cnn(C(C)(C)C)c3)cc(O[C@H](C)[C@H]3CNC(=O)C3)c12 [example 6.09 on page 559 of WO15017610, reference compound]" experimental_result=0.037

###

# System: Recombinant human FLT3 (amino acids 564-958) (Homo sapiens (Human))
# Experimental Details: FLT3 kinase test (ADP Glo)
# Assay type: biochemical
# Study Conditions: read-out: FLT3 inhibition IC50-value (chapter 5.4)
Measured Metric: IC50 (µM)

compound_string=Cc1c2c(O[C@H](C)[C@H]3CNC(=O)C3)cc(-c3cnn([C@@H]4CCOC(C)(C)C4)c3)cc2nn1C system="Recombinant human FLT3 (amino acids 564-958) (Homo sapiens (Human))" unit=µM experimental_result=1.84
compound_string=Cc1c2c(O[C@H](C)[C@H]3CNC(=O)C3)nc(-c3c[nH]nc3C(C)(C)C)cc2nn1C system="Recombinant human FLT3 (amino acids 564-958) (Homo sapiens (Human))" unit=µM experimental_result=7.41
compound_string=C[C@@H](Oc1cc(-c2cnn(C3CC3)c2)cc2nn(C)c(F)c12)[C@H]1CNC(=O)C1 system="Recombinant human FLT3 (amino acids 564-958) (Homo sapiens (Human))" unit=µM experimental_result=3.99
compound_string=Cc1c2c(O[C@H](C)[C@H]3CNC(=O)C3)cc(-c3cnn(C(C)(C)C)c3)cc2nn1C system="Recombinant human FLT3 (amino acids 564-958) (Homo sapiens (Human))" unit=µM experimental_result=5.22

###

# System: Recombinant human Aurora B (amino acids 1-344) (Homo sapiens (Human), UniProt Q96GD4)
# Experimental Details: Aurora B kinase test (ADP Glo)
# Type: biochemical
# Study Conditions: read-out: AURB inhibition IC50-value (chapter 5.3)
# Experimental: The activity of the Aurora B kinase protein was determined using the ADP Glo® Luminescence Kinase test (Promega; V9103X). In this homogeneous test the amount of ADP remaining after the kinase reaction is quantified by a luciferin-luciferase reaction using luminescence. The luminescence signal obtained correlates with the amount of ADP still present and thus correlates with the activity of the protein kinase. […] The output file of the reader is a csv file that contains the well number and measured RLU. […]
pIC50: −log10 of the molar value.
Measured Metric: pIC50

compound="C[C@@H](Oc1cc(-c2cnn(C(C)(C)C)c2)cc2ncn(C)c12)[C@H]1CNC(=O)C1 [example 3B.22 on page 219 of WO15017610, reference compound]" op== experimental_result=6.11
compound="Cc1c2c(O[C@H](C)[C@H]3CNC(=O)C3)cc(-c3cnn(CCF)c3)cc2nn1C [Example 11]" op== experimental_result=4.51
compound="Cc1cc2c(O[C@H](C)[C@H]3CNC(=O)C3)cc(-c3cnn(C(C)(C)C)c3)cn2n1 [example 6.60 on page 587 of WO15017610, reference compound]" op=< experimental_result=4.30

###

# System: Recombinant human FLT3 (amino acids 564-958) (Homo sapiens (Human), UniProt P36888)
# Sequence (P36888 564-958): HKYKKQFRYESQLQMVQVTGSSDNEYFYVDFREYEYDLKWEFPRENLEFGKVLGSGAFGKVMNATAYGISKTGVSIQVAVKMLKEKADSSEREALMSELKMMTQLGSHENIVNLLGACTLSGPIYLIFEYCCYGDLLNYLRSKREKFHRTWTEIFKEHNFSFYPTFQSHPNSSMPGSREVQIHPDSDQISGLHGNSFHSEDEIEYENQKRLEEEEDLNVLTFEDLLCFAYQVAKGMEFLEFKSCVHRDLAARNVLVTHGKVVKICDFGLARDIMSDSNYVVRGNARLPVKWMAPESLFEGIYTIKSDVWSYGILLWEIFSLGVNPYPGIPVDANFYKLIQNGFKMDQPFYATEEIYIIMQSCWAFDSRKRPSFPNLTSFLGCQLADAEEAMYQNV
# Experimental Details: FLT3 kinase test (ADP Glo)
# Format: biochemical
# Study Conditions: read-out: FLT3 inhibition IC50-value (chapter 5.4)
Measured Metric: IC50 (nM)

compound="C[C@@H](Oc1nc(-c2cnn(C(C)(C)C)c2)cc2ncn(C)c12)[C@H]1CNC(=O)C1 [example 3A.02, on page 196 of WO15017610, reference compound]" measured_metric=IC50 experimental_result=384
compound="Cc1cnn2cc(-c3cnn(C(C)(C)C)c3)cc(O[C@H](C)[C@H]3CNC(=O)C3)c12 [example 6.09 on page 559 of WO15017610, reference compound]" measured_metric=IC50 experimental_result=25
compound="Cc1c2c(O[C@H](C)[C@H]3CNC(=O)C3)cc(-c3cnn(C4CC(C)(C)OC4(C)C)c3)cc2nn1C (stereo partly shown)" measured_metric=IC50 experimental_result=3490
compound=CC(C)n1cc(-c2cc(O[C@H](C)[C@H]3CNC(=O)C3)c3c(F)n(C)nc3c2)cn1 measured_metric=IC50 experimental_result=2830
compound=Cc1c2c(O[C@H](C)[C@H]3CNC(=O)C3)cc(-c3cnn([C@H]4CO[C@@H]5CCCO[C@@H]54)c3)cc2nn1C measured_metric=IC50 experimental_result=2020
compound=Cc1c2c(O[C@H](C)[C@H]3CNC(=O)C3)cc(-c3cnn(C(C)(C)C#N)c3)cc2nn1C measured_metric=IC50 experimental_result=11300
compound=Cc1c2c(O[C@H](C)[C@H]3CNC(=O)C3)cc(-c3cnn(CC(C)C)c3)cc2nn1C measured_metric=IC50 experimental_result=4950

###

Reported log10 IC50 by item:
# System: Recombinant human FLT3 (amino acids 564-958) (Homo sapiens (Human))
# Experimental Details: FLT3 kinase test (ADP Glo)
# Assay type: biochemical
# Study Conditions: read-out: IC50(FLT3)
Measured Metric: log10 IC50 (log10 of the value in nM)

compound="C[C@@H](Oc1cc(-c2cnn(C(C)(C)C)c2)cc2ncn(C)c12)[C@H]1CNC(=O)C1 [example 3B.22 on page 219 of WO15017610, reference compound]" experimental_result=2.49
compound="Cc1cnn2cc(-c3cnn(C(C)(C)C)c3)nc(O[C@H](C)[C@H]3CNC(=O)C3)c12 [example 5.20 on page 506 of WO15017610, reference compound]" experimental_result=1.63
compound="Cc1cc2c(O[C@H](C)[C@H]3CNC(=O)C3)cc(-c3cnn(C(C)(C)C)c3)cn2n1 [example 6.60 on page 587 of WO15017610, reference compound]" experimental_result=3.82
compound="C[C@@H](Oc1nc(-c2cnn(C(C)(C)C)c2)cc2ncn(C)c12)[C@H]1CNC(=O)C1 [example 3A.02, on page 196 of WO15017610, reference compound]" experimental_result=2.58
compound="Cc1cnn2cc(-c3cnn(C(C)(C)C)c3)cc(O[C@H](C)[C@H]3CNC(=O)C3)c12 [example 6.09 on page 559 of WO15017610, reference compound]" experimental_result=1.40
